Recorded values, source ChEMBL document CHEMBL4270646.

Assay: Selectivity index, ratio of CC50 for human HepG2 cells expressing CD81 to IC50 for GFP-expressing Plasmodium yoelii sporozoites
Assay type: toxicity
Conditions: read-out: Ratio CC50/IC50
The label depends only on selectivity ratio: Satisfied if it is at least 30, Not satisfied if it is smaller.

COc1cc(NC(C)CCCNC(=O)c2c(C)[n+]([O-])c3ccccc3[n+]2[O-])c2ncccc2c1 (stereo not given): Satisfied
COc1cc(NC(C)CCCNC(=O)c2c(C)[n+]([O-])c3ccc(C)cc3[n+]2[O-])c2ncccc2c1 (stereo not given): Not satisfied
COc1cc(NC(C)CCCN)c2ncccc2c1 (stereo not given): Satisfied
Cc1c(C(=O)NCCNc2ccnc3cc(Cl)ccc23)[n+]([O-])c2cc(Cl)ccc2[n+]1[O-]: Not satisfied
COc1cc(NC(C)CCCNC(=O)c2c(C)[n+]([O-])c3ccc(Cl)cc3[n+]2[O-])c2ncccc2c1 (stereo not given): Satisfied

====

Test: Genotoxicity in Salmonella typhimurium TA1535 harboring pSK1002 assessed as umu gene induction at 0.001 to 0.063 mg/ml after 4 hrs in absence of Sprague-Dawley rat liver S9 fraction by beta-galactosidase reporter gene assay relative to control
Type: toxicity, organism-based
Conditions: salmonella enterica subsp. enterica serovar typhimurium; read-out: FC
Reported Metric: fold induction at 4 h

COc1cc(NC(C)CCCNC(=O)c2c(C)[n+]([O-])c3ccccc3[n+]2[O-])c2ncccc2c1 (stereo unspecified): < 2

====

Recorded selectivity ratio by entry
Assay: Selectivity index, ratio of CC50 for human primary hepatocytes to IC50 for GFP-expressing Plasmodium falciparum sporozoites
Format: toxicity
Details: read-out: Ratio CC50/IC50
Reported Metric: selectivity ratio

COc1cc(NC(C)CCCNC(=O)c2c(C)[n+]([O-])c3cc(C)c(C)cc3[n+]2[O-])c2ncccc2c1 (stereo unspecified): 20.2
COc1cc(NC(C)CCCNC(=O)c2c(C)[n+]([O-])c3ccccc3[n+]2[O-])c2ncccc2c1 (stereo unspecified): 39.5
COc1cc(NC(C)CCCN)c2ncccc2c1 (stereo unspecified): 136
Cc1c(C(=O)NCCNc2ccnc3cc(Cl)ccc23)[n+]([O-])c2cc(Cl)ccc2[n+]1[O-]: 9.56
COc1cc(NC(C)CCCNC(=O)c2c(C)[n+]([O-])c3ccc(C)cc3[n+]2[O-])c2ncccc2c1 (stereo unspecified): 28.6
COc1cc(NC(C)CCCNC(=O)c2c(C)[n+]([O-])c3ccc(Cl)cc3[n+]2[O-])c2ncccc2c1 (stereo unspecified): 54.5

====

Test: Cytotoxicity against human HepG2 cells expressing CD81 assessed as reduction in cell viability after 48 hrs by MTT assay
Type: cell-based
Reported CC50 at 48 h values for a set of molecules
Reported Metric: CC50 at 48 h

Cc1c(C(=O)NCCNc2ccnc3cc(Cl)ccc23)[n+]([O-])c2cc(Cl)ccc2[n+]1[O-]: 69.9 µM
COc1cc(NC(C)CCCNC(=O)c2c(C)[n+]([O-])c3ccc(Cl)cc3[n+]2[O-])c2ncccc2c1 (configuration not stated): > 198 µM
COc1cc(NC(C)CCCNC(=O)c2c(C)[n+]([O-])c3cc(C)c(C)cc3[n+]2[O-])c2ncccc2c1 (configuration not stated): > 202 µM
COc1cc(NC(C)CCCN)c2ncccc2c1 (configuration not stated): 69.8 µM
COc1cc(NC(C)CCCNC(=O)c2c(C)[n+]([O-])c3ccc(OC)cc3[n+]2[O-])c2ncccc2c1 (configuration not stated): > 204 µM
COc1cc(NC(C)CCCNC(=O)c2c(C)[n+]([O-])c3ccc(C)cc3[n+]2[O-])c2ncccc2c1 (configuration not stated): > 207 µM
COc1cc(NC(C)CCCNC(=O)c2c(C)[n+]([O-])c3ccccc3[n+]2[O-])c2ncccc2c1 (configuration not stated): > 213 µM
